System: P19
assay.details: Cytotoxicity against differentiated mouse P19 cells assessed as cell mass at 1 to 100 uM after 24 hrs by SRB assay relative to control
Type: functional

molecule | Activity / %
O=C(c1ccc2c(c1)C(=O)N(c1c[nH]c(=O)[nH]c1=O)C2=O)c1ccc2c(c1)C(=O)N(c1c[nH]c(=O)[nH]c1=O)C2=O | 95.8
OC[C@H]1OC(O)C[C@@H](O)[C@@H]1O (stereo partly drawn) | 90.5
O=C(c1ccc2c(c1)C(=O)N(c1ccc(O)cc1)C2=O)c1ccc2c(c1)C(=O)N(c1ccc(O)cc1)C2=O | 86.7
O=C(c1ccc2c(c1)C(=O)N(CCCO)C2=O)c1ccc2c(c1)C(=O)N(CCCO)C2=O | 110.6
O=C(c1ccc2c(c1)C(=O)N(c1nc[nH]n1)C2=O)c1ccc2c(c1)C(=O)N(c1nc[nH]n1)C2=O | 93.3
O=C(c1ccc2c(c1)C(=O)N(c1ccccc1O)C2=O)c1ccc2c(c1)C(=O)N(c1ccccc1O)C2=O | 95.6
O=C(c1ccc2c(c1)C(=O)N(CCO)C2=O)c1ccc2c(c1)C(=O)N(CCO)C2=O | 96.2
O=C(c1ccc2c(c1)C(=O)N(c1cccc(O)c1)C2=O)c1ccc2c(c1)C(=O)N(c1cccc(O)c1)C2=O | 100
